Molecular target: T1, SpPot1-DBD (Schizosaccharomyces pombe, UniProt O13988 1-389)
T1 sequence: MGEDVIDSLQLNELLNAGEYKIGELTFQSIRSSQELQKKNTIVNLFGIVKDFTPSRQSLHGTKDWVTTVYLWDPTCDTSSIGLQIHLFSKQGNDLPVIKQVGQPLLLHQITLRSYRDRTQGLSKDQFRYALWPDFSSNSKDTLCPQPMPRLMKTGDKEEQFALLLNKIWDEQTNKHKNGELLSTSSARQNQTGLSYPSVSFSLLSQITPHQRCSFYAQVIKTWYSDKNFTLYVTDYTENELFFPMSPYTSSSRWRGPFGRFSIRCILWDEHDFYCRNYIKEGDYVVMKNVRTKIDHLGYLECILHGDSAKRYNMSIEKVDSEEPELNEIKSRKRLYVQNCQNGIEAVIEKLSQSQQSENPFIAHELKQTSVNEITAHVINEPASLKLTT
Assay: EMSA
pKd: −log10 of the molar value.

# BINDER, pKd
records = [
    ("GGTTA (ssDNA) [d(GGTTA) 5mer]", "~8.00"),
]
